Listed molecules paired with reported cytotoxicity at 70.5 h
- procedureText: Human HepG2 cell viability assay in 384 well format
- Assay type: toxicity, cell-based
- Set-up: dose 125 nL, time 70.5 hour; concentration not given beside the values
- experimentalConditions: HepG2 cells, read-out: Inhibition
Lab book: enter the figure in %, no units written.

- molecule: "CC(C)c1cc(C2CCCN2Cc2nc(-c3ccco3)no2)no1 (stereo unspecified)"
  cytotoxicity at 70.5 h [%]: -2.57
- molecule: "Cc1ccc(N2CC[C@@H](NC(=O)c3cnccn3)[C@H](O)C2)nn1"
  cytotoxicity at 70.5 h [%]: -7.78
- molecule: "CC(=O)N1CCc2[nH]cnc2C12CCN(C(=O)Cc1ccccn1)CC2"
  cytotoxicity at 70.5 h [%]: -14.9
- molecule: "Cn1cccc1C(O)CNC(=O)c1ccc(F)c(F)c1 (stereo unspecified)"
  cytotoxicity at 70.5 h [%]: -13.5
- molecule: "CS(=O)(=O)N1C[C@H](C(=O)Nc2cccnc2)[C@@H]2CCO[C@@H]2C1"
  cytotoxicity at 70.5 h [%]: -4.86

Returns the measured cytotoxicity at 70.5 h for the input molecule. Input: `Fc1ccc([C@@H]2COC[C@H]2NCc2cccc(F)c2)cc1`
-3.65

Now consider `COc1ccnc(NC2CCN(CC(=O)Nc3ccccc3)CC2)n1` and answer again.
4.43

Entry `O=C(NCCCn1cncn1)c1ccc(-c2ccccc2)[nH]c1=O` please
-11.4

Then this molecule: Cc1nc(C)n(C2CCCN(C(=O)CCn3cncn3)C2)n1 (stereo unspecified)
-0.0645

Another molecule to look at: Fc1ccc(OCCCN2CCCC(Cn3cncn3)C2)cc1 (stereo unspecified)
-3.77

Entry to check: `Cc1nc(CNCc2ccc(N3CCN(C)CC3)nc2)cs1`
16.7
